molecular target: T1, Ac-VQIINK-NH2 (SEQ ID NO: 23); assay: cell-based or functional assay
T1 sequence (peptide, N-terminal acetyl (Ac); C-terminal amide (NH2)): RLKIRW
Square brackets hold non-standard residues; d marks the D form. Ends that are not written are not given here. dCha = N[C@H](CC1CCCCC1)C(=O)O; dNle = CCCC[C@@H](N)C(=O)O
Measure name: VQIINK Inhibition IC50

[dCha][dR][dL][dK][dV][dR][dW] (not fully specified; printed as brlkvrw) [brlkvrw] | 2.31 µm
[dW][dR][dL][dK][dNle][dR][dW] [wrlkurw] | 1.41 µm

Next binder, please.
(Q) // fetch VQIINK Inhibition IC50 given entry [dNle][dR][dL][dK][dV][dR][dW] [urlkvrw]
(A) 2.29 µm
